The measurements presented in this section are drawn from ChEMBL document CHEMBL1201862.

Catalogue of GI50 readings, one per entry.
system: SF-539; assay: NCI tumour cell line growth inhibition, 48 h
Activity calls are given as the source filed them. No stated cut-off is given here; in the data, active = GI50 up to about 1.1 µM and inactive = higher.

Consider the reported GI50 for these compounds:
1) Nc1nc(Cl)c(N)c(NCC2(CO)CCC(CCc3ccccc3)C2)n1 (configuration not stated) ... 15.5 µM (inactive)
2) O=C1NC(c2c(Cl)cccc2Cl)Nc2ccccc21 (configuration not stated) ... 47.1 µM (inactive)
3) O=CC(=C(I)I)c1ccccc1 ... 2.35 µM (inactive)
4) COc1ccc2c3c1OC1C(OC)(OC)C=C[C@@]4(Br)[C@@H](C2)N(CC2CC2)CC[C@]314 (some centres not stated) ... > 100 µM (inactive)
5) Nc1ccc(C(=O)NN2C(=O)C(Cl)C2c2ccc(O)cc2)cc1 (configuration not stated) ... 19.1 µM (inactive)
6) COC(=O)Cc1cc(=O)n2c([nH]c3ccccc32)c1C#N ... > 100 µM (inactive)

## Input Entry CSC(SC)=C1C(=O)NN=C1C has what GI50?
## Output > 100 µM (inactive)

###

system: HCT-15
Returns: string. Value is Criterion met if measured GI50 is below 8 µM, and Criterion not met if it is greater than or equal to it.

1) CC(=O)N1N=C(N)CC1=O ... Criterion not met

## Input Is GI50 of CN(C)CCNC(=O)c1ccc(Cl)c2c(Nc3ccc(S(=O)(=O)N=C(N)N)cc3)c3ccccc3nc12 strictly below 8 µM?
## Output Criterion met

## Input Is GI50 strictly under 8 µM for the entry COc1ccc2[nH]c3c([N+](=O)[O-])ccc(NCCCN(C)C)c3/c(=N/CCCN(C)C)c2c1 ?
## Output Criterion met

## Input Would you kindly verify if GI50 of COC(=O)CCCC(=O)NC1=C(NCc2ccccc2)C(=O)c2ccccc2C1=O is strictly less than 8 µM?
## Output Criterion not met

###

Listed below: GI50 values for each entry.
tested on: TK-10; experiment: NCI tumour cell line growth inhibition, 48 h
Calls of active or inactive are those of the source. Cut-off read from the data, not from the text of the source: active = GI50 up to about 1.1 µM and inactive = higher.

## Input Endpoint output: GI50 of O=C1CC(=O)c2c(N3CCCC3)sc(N3CCCC3)c21 . Value?
## Output > 100 µM (inactive)

## Input Param item = CCOC(=O)C1=C(C)NC(=S)NC1c1ccccc1 (stereo not given) ; retrieve measured GI50.
## Output > 100 µM (inactive)

## Input Which value of GI50 has been reported for COC(=O)CCCC(=O)NC1=C(NCc2ccccc2)C(=O)c2ccccc2C1=O in the records?
## Output > 100 µM (inactive)

## Input Fill in: GI50 of Cc1ccccc1NC(=O)/C(=N/NC(=O)CC#N)C1C(=O)N(c2ccccc2)N=C1N (stereo not given) is ___
## Output > 100 µM (inactive)

## Input For the molecule COc1cc(/C=N\O)nc(-c2ccccn2)c1 , what GI50 is on record?
## Output > 30.8 µM (inactive)

## Input // query GI50 value for entry O=C1CC(c2ccccc2Cl)Oc2ccccc21 (stereo not given)
## Output 98.6 µM (inactive)

## Input Form field: reported GI50 of CCN(CC)CCCNc1nccc2c(C)c3[nH]c4ccncc4c(=O)c3cc12
## Output 3.18 µM (inactive)

###

Here, each record is paired with measured GI50 data.
system: SN12C; assay: NCI tumour cell line growth inhibition, 48 h
Activity calls are given as the source filed them. No stated cut-off is given here; in the data, active = GI50 up to about 1.1 µM and inactive = higher.

Some entries whose results are on file:
1. CC(=O)OCC1OC(N2C(=S)N[C@H]([C@@H](O)[C@H](O)[C@H](O)CO)[C@H]2O)C(OC(C)=O)C(OC(C)=O)C1OC(C)=O (stereo partly specified) ... > 100 µM (inactive)
2. N#C/C(=C/NC(=S)NCc1ccccc1)C(N)=O ... > 100 µM (inactive)
3. O=C1NC(=N/c2ccccc2)/C(=N\c2ccccc2)N1c1ccccc1 ... 16.4 µM (inactive)
4. O=C1OC(c2ccccc2)=N/C1=C\c1cn[nH]n1 ... > 100 µM (inactive)

## Input What value of measured GI50 is listed for NCc1nnn(Cc2ccccc2)c1N ?
## Output > 100 µM (inactive)

## Input Which value of GI50 has been reported for NCCNCCCCCCNC(=O)c1cccc2cc3ccccc3nc12 in the records?
## Output 2.42 µM (inactive)

## Input Please give the measured GI50 for this compound: Br[Se]c1ccccn1
## Output 18.7 µM (inactive)

## Input Sample O=C(N[C@H]1CC2(C=C(I)C(=O)C(I)=C2)OC1=O)OCc1ccccc1 — what was its GI50?
## Output 18.2 µM (inactive)

## Input Which GI50 value is on record for O=C1Nc2ccccc2S/C1=C\c1cccc(C(F)(F)F)c1 ?
## Output > 100 µM (inactive)

## Input Recorded GI50 for CN1CCc2c(sc3nc(Nc4ccccc4)n(N)c(=O)c23)C1 , please?
## Output > 100 µM (inactive)

## Input Tell me the measured GI50 of O=C1C=CC[C@H]2O[C@@H](COC(=O)Cc3ccccc3)C[C@H]2O1 , please.
## Output 66.1 µM (inactive)

###

system: SF-268; experiment: NCI tumour cell line growth inhibition, 48 h
Calls of active or inactive are those of the source. Cut-off read from the data, not from the text of the source: active = GI50 up to about 1.1 µM and inactive = higher.
valueType: GI50

Below, each entry is followed by its recorded GI50 result.
1. COc1ccc2c(c1)[n+]([O-])c(C(=O)CC(=O)C(=O)Nc1cccc(C)c1C)c(C)[n+]2[O-] ... > 100 µM (inactive)
2. O=C(O)c1ccc(C(=O)Nc2cccc3ccccc23)c(C(=O)O)c1 ... > 100 µM (inactive)
3. CC(=O)OCC1OC(O[C@H]2C=C[C@@H](C(=O)OCc3ccccc3)n3c(=O)n(-c4ccccc4)c(=O)n32)C(OC(C)=O)C(OC(C)=O)C1OC(C)=O (stereo not given in full) ... 1.78 µM (inactive)
4. Cc1ccc2c(=O)c(C(=O)NNC(=S)NC3CCCCC3)c[nH]c2n1 ... 96.8 µM (inactive)
5. O=C1OC(Cc2ccccc2)(N2CCCC2=O)C1c1ccccc1 (stereo not given) ... > 100 µM (inactive)
6. COc1ccc2nc(-c3ccc(O)cc3)sc2c1 ... 21.1 µM (inactive)

## Input Any idea what GI50 was measured for N#Cc1c2c(c(N)oc1=O)C(c1ccccc1)CC(=O)N2 (stereo not given) ?
## Output > 100 µM (inactive)

## Input What does the record list as GI50 for COc1ccc2cc(C(C)C(=O)N3C(=O)OCC3(C)C)ccc2c1 (stereo not given) ?
## Output > 100 µM (inactive)

## Input Would you kindly share the measured GI50 for Cc1cnc2nc(-c3ccc(F)cc3)cc(O)c2c1 ?
## Output 67.9 µM (inactive)

## Input For the molecule shown here, CC(=O)C(CN(C(C)C)C(C)C)C(c1ccccc1)c1c(O)c2ccccc2oc1=O (stereo not given) , give the reported GI50.
## Output > 100 µM (inactive)

###

test system: KM-20L2; test: NCI tumour cell line growth inhibition, 48 h
Active and inactive are the calls of the source. No stated cut-off is given here; in the data, active = GI50 up to about 1.1 µM and inactive = higher.
valueType: GI50

1) CC1(C)C=C(N2CCN(C3=CC(C)(C)NC(C)(C)C3)CC2)CC(C)(C)N1 ... > 100 µM (inactive)

## Input Query: GI50; subject: CN1C(=O)CCC2[C@@H]3CC=C4C[C@@H](O)CC[C@]4(C)C3CC[C@@]21C (stereo not given in full)
## Output 53.5 µM (inactive)

## Input # lookup: GI50 of N#Cc1c2c(c(Cl)n3c1nc1ccccc13)CCCC2
## Output 2.49 µM (inactive)

## Input Request the reported GI50 associated with CC(=O)OCc1c2ccccc2c(C)c2c1cc(F)c1ccccc12
## Output 28.8 µM (inactive)

## Input # get_value(readout='GI50', item= O=C(N[C@H]1CC2(C=C(I)C(=O)C(I)=C2)OC1=O)OCc1ccccc1 )
## Output 18.6 µM (inactive)

###

system: HCT-116; test: NCI tumour cell line growth inhibition, 48 h
Activity calls are given as the source filed them. Cut-off read from the data, not from the text of the source: active = GI50 up to about 1.1 µM and inactive = higher.
Outcome (select one): active, inactive

Example cases with answers are listed next.
1. C=C(Cl)C(Cl)(CBr)CCC(Cl)C(C)C (stereo not given) ... inactive
2. Nc1ccc2nc3ccc(N)cc3[n+](-c3ccccc3)c2c1 ... inactive
3. COC(=O)[C@]1(C)CCCC2(C)C1CC[C@H]1C=C(C)[C@H]3CCC12C3 (stereo not given in full) ... inactive
4. CN1CCN([C@H]2C[C@H]3[C@@H]4CC=C5C[C@@H](O)CC[C@]5(C)[C@H]4CC[C@]3(C)[C@H]2O)CC1 ... inactive
5. CC1(CO)C(O)CCC2(C)C1CCC1CC3CC12CCC3(O)CO (stereo not given) ... inactive

## Input Tell me the assay call for COc1ccc2nc3ccc(OC)cc3c(SCCCl)c2c1 please.
## Output inactive

## Input Recorded call for CCOC(=O)C1=C(c2ccccc2)C12N(Cc1ccccc1)C(=O)C2(c1ccccc1)c1ccccc1 (stereo not given) ?
## Output inactive

## Input Check the results log: what was the call for CN(C)CC1(Cc2ccccc2)CCC(Cc2ccccc2)C1=O (stereo not given) ?
## Output inactive
